Ok so here's the combined literature set: IC50 for Tyrosine-protein kinase Blk (Homo sapiens, UniProt P51451).
Numbers only, in nM.

Field: example entries. Status: answers known.
[
  {
    "Compound": "COCC(=O)N1CCC[C@@H](c2nc(-c3ccc(C(=O)Nc4cc(C(F)(F)F)ccn4)cc3F)c3c(N)nccn23)C1",
    "System Under Test": "Tyrosine-protein kinase Blk (Homo sapiens, UniProt P51451)",
    "Unit Label": "nM",
    "Test Result": 9
  },
  {
    "Compound": "CN1CCN([C@H]2CC[C@@H](n3cc(-c4ccc(Oc5ccccc5)cc4)c4c(N)ncnc43)CC2)CC1",
    "System Under Test": "Tyrosine-protein kinase Blk (Homo sapiens, UniProt P51451)",
    "Unit Label": "nM",
    "Test Result": 46
  }
]

Now consider the entry below.
Req: Given C=CC(=O)Nc1cccc(Nc2ncnc(Nc3ccc(C(=O)N4CCCCC4)cc3)n2)c1 , state its recorded IC50.
Resp: 594

###

pIC50: −log10 of the molar value.
Ok so here's the combined literature set: pIC50 for UniProt P51451.
Quick rule for you: pIC50 at 6 or higher means true (1), lower means false (0).

[
  {
    "Compound": "Cc1c(-c2ccc(C(N)=O)c3[nH]c4cc(C(C)(C)O)ccc4c23)cccc1-n1cnc2ccccc2c1=O",
    "Answer Label": "true (1)"
  }
]

Req: Check this compound for pIC50 at or above 6: CCOC(Cn1nc(-c2ccc3oc(N)nc3c2)c2c(N)ncnc21)OCC
Resp: false (0)

Req: Check this compound for pIC50 at or above 6: N#C/C(=C1/Nc2ccccc2S1)c1ccnc(NCCc2cccnc2)n1.O=C(O)C(F)(F)F.O=C(O)C(F)(F)F
Resp: false (0)

Req: Check this compound for pIC50 at or above 6: CC(C)C(=O)N1CCC[C@@H](c2nc(-c3ccc(C(=O)Nc4cc(C(F)(F)F)ccn4)cc3F)c3c(N)nccn23)C1
Resp: true (1)

Req: Check this compound for pIC50 at or above 6: COCC(=O)N1CCO[C@@H](c2nc(-c3ccc(C(=O)Nc4cc(C(F)(F)F)ccn4)cc3F)c3c(N)nccn23)C1
Resp: true (1)

Req: Check this compound for pIC50 at or above 6: O=C1/C(=C/c2ccc(O)c(O)c2)Oc2cc(O)ccc21
Resp: false (0)
